target: T1, human CD3 expressed on cells (Jurkat cells; human T-cells of PBMC) (human, UniProt P09693 23-182; P20963 22-164); experiment: FACS titration on Jurkat cells (CD3+ human T-cell line)
T1 construct: whole, on cells; Native CD3 on the cell surface; also called hPBMC
T1 sequence (chain, as listed by the source, chain 1 of 4): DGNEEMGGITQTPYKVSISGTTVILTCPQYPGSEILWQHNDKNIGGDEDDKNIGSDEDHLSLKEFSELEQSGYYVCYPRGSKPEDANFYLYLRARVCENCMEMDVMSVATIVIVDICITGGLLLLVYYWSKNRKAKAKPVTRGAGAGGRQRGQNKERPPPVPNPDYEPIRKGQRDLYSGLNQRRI
T1 sequence (chain, as listed by the source, chain 2 of 4): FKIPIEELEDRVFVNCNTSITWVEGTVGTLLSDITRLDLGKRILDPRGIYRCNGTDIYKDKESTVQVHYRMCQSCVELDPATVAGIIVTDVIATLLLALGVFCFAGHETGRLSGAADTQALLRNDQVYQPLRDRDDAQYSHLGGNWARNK
T1 sequence (P09693 23-182, chain 3 of 4): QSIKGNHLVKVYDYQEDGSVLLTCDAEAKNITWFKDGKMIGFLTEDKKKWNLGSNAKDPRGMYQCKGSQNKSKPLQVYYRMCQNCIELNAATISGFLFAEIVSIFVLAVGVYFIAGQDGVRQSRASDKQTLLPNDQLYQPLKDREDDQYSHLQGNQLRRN
T1 sequence (P20963 22-164, chain 4 of 4): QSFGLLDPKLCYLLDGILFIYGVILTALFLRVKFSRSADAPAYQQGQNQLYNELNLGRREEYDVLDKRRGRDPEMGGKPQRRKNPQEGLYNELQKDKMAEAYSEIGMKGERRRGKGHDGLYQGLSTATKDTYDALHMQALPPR
Observable: EC50 (nM)
Write the value in nM as a bare number.

Binder	Test Result
H1H5758B (antibody, human IgG1, V domains shown, H1H: human IgG1 Fc) VH: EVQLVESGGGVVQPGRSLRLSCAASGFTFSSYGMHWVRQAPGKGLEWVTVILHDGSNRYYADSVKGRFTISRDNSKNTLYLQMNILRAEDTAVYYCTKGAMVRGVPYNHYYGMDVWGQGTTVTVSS VL: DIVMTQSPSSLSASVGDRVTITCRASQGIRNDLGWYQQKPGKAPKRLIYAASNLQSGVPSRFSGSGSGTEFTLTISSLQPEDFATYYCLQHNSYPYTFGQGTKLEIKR	1.9

# lookup: EC50 of H1H5757B (antibody, human IgG1, V domains shown, H1H: human IgG1 Fc) VH: EVQLVESGGGVVQPGRSLRLSCAASGFTFSSYGMHWVRQAPGKGLEWVTVILHDGSNRYSADSVKGRFTISRDNSKNTLYLQMNILRVEDTAVYYCTKGAMVRGVPYNHYYGMDVWGQGTTVTVSS VL: DIQMTQSPSSLSASVGDRVTITCRASQGIRNDLGWYQQKPGKAPKRLIYAASILQSGVPSRFSGSGSGTEFTLTISSLQPEDFATYYCLQHNSYPYTFGQGTKLEIKR
3.38

# lookup: EC50 of H1H5764P (antibody, human IgG1, V domains shown, H1H: human IgG1 Fc) VH: QVQLVESGGGVVQPGRSLRLSCAASGFTFRSFGMHWVRQAPGKGLEWVAVISYDGNYKYYADSVKGRFTISRDNSKNTLYLQMNSLRAEDTAVHYCAKGAMVRGVPYNFYYGMDVWGQGTTVTVSS VL: DIQMTQSPSSLSASVGDRVTITCRASQVIRNDLGWYQQKPGKAPKRLIYAASSLQSGIPSRFSGSGSGTEFTLTISSLQPEDFATYYCLQHNSYPYTFGQGTKLEIK
0.88
